Tested on: MDA-MB-435 melanoma
method: NCI-60 one-dose screen, 48 h (100 = growth as untreated, 0 = no growth, -100 = all killed)
experimental setup: 10 µM unless noted
About 83,000 compounds went through this panel and 20% of them were active in at least one assay; those are over-represented in the sample as a whole.
readout kind: growth (%)
Quick note: give the figure in %, leave out the unit.

The examples below pair each entry with its known result.
[[record]]
molecule = "CS(CCCCN=C=S)=NC(=O)c1c(F)c(F)c(F)c(F)c1F (stereo unspecified)"
readout_kind = "growth"
recorded_value = 70.8

[[record]]
molecule = "O=C(CO[N+](=O)[O-])Nc1ccc(C(=O)/C=C/c2ccc(Cl)cc2)cc1"
readout_kind = "growth"
recorded_value = -2.76

[[record]]
molecule = "CS(=O)CCCCCN=C=S (stereo unspecified)"
readout_kind = "growth"
recorded_value = 20.4

[[record]]
molecule = "CCCCCCCCCCCCCCCCCCNC(=O)[C@H]1CSC(c2ccc(F)c(OC)c2)N1 (stereo partly specified)"
readout_kind = "growth"
recorded_value = -92.7

[[record]]
molecule = "CC(=O)C1=C(O)C=C2Oc3c(C(=O)/C=C/c4ccccc4)c(O)c(C)c(O)c3[C@]2(C)C1=O"
readout_kind = "growth"
recorded_value = 46.3

[[record]]
molecule = "COc1cc(NCCCCN=C(N)N)c2ncccc2c1"
readout_kind = "growth"
recorded_value = 104

[[record]]
molecule = "C(=N\\Nc1ccccn1)/c1ccccn1"
readout_kind = "growth"
recorded_value = 33.6

[[record]]
molecule = "COc1ccc(CN(c2ccc(C)cc2)C2OC(=O)c3ccccc32)cc1OC (stereo unspecified)"
readout_kind = "growth"
recorded_value = 100


Prompt line: Give MDA-MB-435 melanoma growth for C=CC[N+]1(CC)CCN=C1CCCCCCCCCCCCCCCCC (stereo unspecified)
Response line: -85

Prompt line: Please tell me: growth of O=C(O)c1c([N+](=O)[O-])cnc2ccccc12 , system MDA-MB-435 melanoma?
Response line: 102

Prompt line: Requested read-out growth, target or system MDA-MB-435 melanoma, entry COc1ccc(C2CC(=O)Nc3c2c(C)nn3-c2nc3ccccc3[nH]2)cc1 (stereo unspecified)
Response line: 99.9

* * *

Tested on: A549/ATCC NSCLC
method: NCI-60 one-dose screen, 48 h
experimental setup: 10 µM unless noted
About 83,000 compounds went through this panel and 20% of them were active in at least one assay; those are over-represented in the sample as a whole. Active and inactive are the calls of the source. Rule for the calls: active = growth percent below 10; inactive = the rest.
Respond only with the outcome that fits, drawn from Yes (active), No (inactive)

Field: example entries. Status: answers known.
[[record]]
compound = "O=c1c(/C=C/c2ccco2)nnc(SCCN2CCOCC2)n1/N=C/c1ccc([N+](=O)[O-])cc1"
label_value = "No"

[[record]]
compound = "O=C1/C(=C/c2ccc(F)cc2)CN(C(=O)CCN2CCC(=NO)CC2)C/C1=C\\c1ccc(F)cc1"
label_value = "No"

[[record]]
compound = "COc1ccc(-c2cc(-c3cccnc3)nc3sc4c(=O)n(-c5ccc(C)cc5)nnc4c23)cc1OC"
label_value = "No"


Prompt line: Look up the recorded call for CS(=O)(CCCCN=C=S)=NC(=O)c1c(F)c(F)c(F)c(F)c1F (stereo not given) in this test.
Response line: No

Prompt line: Record request — test call for O=C1C=CC(=O)c2c1nc1n2CCCC1
Response line: No

Prompt line: For C=C1CCC2C3(C)COC(c4ccc(SC)cc4)OC3CCC2(C)C1C/C=C1/C(=O)OCC1O (stereo not given) , which call appears in the assay record?
Response line: No

* * *

System: HCT-15 colon
method: NCI-60 one-dose screen, 48 h (100 = growth as untreated, 0 = no growth, -100 = all killed)
experimental setup: 10 µM unless noted
The panel holds about 83,000 compounds, 20% with a hit somewhere; the sample as a whole holds those more often.
readout kind: growth (%)
Report as a plain number; the unit % is understood.

[[record]]
compound = "O=C1C[C@H](Sc2nc(-c3ccc(F)cc3)cc(C(F)(F)F)n2)[C@H]2CO[C@@H]1O2"
readout_kind = "growth"
quantity_unit = "%"
recorded_value = 63.1

[[record]]
compound = "CN1CCN(Cc2ccc(NC(=O)c3[nH]ncc3Nc3ncnc4sccc34)cc2)CC1"
readout_kind = "growth"
quantity_unit = "%"
recorded_value = 7.97

[[record]]
compound = "COc1ccc2nc3cc(Cl)ccc3c(NCCNCC(O)CO)c2c1 (centres undefined)"
readout_kind = "growth"
quantity_unit = "%"
recorded_value = 73.4

[[record]]
compound = "COc1cc(OC)c(/C=C/c2cc[n+](C)c3ccccc23)c(OC)c1"
readout_kind = "growth"
quantity_unit = "%"
recorded_value = 90.9

[[record]]
compound = "C=C(C[n+]1ccccc1)[C@@H]1CC[C@]2(C(=O)OC)CC[C@]3(C)[C@H](CC[C@@H]4[C@@]5(C)CC[C@H](O)C(C)(C)[C@@H]5CC[C@]43C)[C@@H]12"
readout_kind = "growth"
quantity_unit = "%"
recorded_value = 106

[[record]]
compound = "O=C1C=CC(=O)N1c1ccc(Cc2ccc(N3C(=O)C=CC3=O)cc2)cc1"
readout_kind = "growth"
quantity_unit = "%"
recorded_value = 91.1


Prompt line: Fill in: growth of CCOC(=O)c1c2c(n3ccc(NC(=O)CCN4CCCCC4)cc13)C(=O)c1ncccc1C2=O is ___
Response line: -62.9

Prompt line: Quick check: growth of C/C(Cc1ccc(Cl)cc1)=C(\c1ccc(OCCN2CCCCCC2)cc1)c1ccc(OC(=O)Cc2ccccc2)cc1 ?
Response line: 32.6

Prompt line: Which measured growth value corresponds to Cc1ccc2c(NCCCN(C)C)c3c(C)nn(C)c3nc2c1 ?
Response line: 29

* * *

Tested on: TK-10 renal
method: NCI-60 one-dose screen, 48 h (100 = growth as untreated, 0 = no growth, -100 = all killed)
experimental setup: 10 µM unless noted
About 83,000 compounds went through this panel and 20% of them were active in at least one assay; those are over-represented in the sample as a whole.
readout kind: growth (%)
The response must be a number in % with no trailing unit.

[[record]]
molecule = "CCCCCCCCCC(=O)Oc1ccc(/C(=C(/C)Cc2cccc(OC)c2)c2ccc(OCCN(C)C)cc2)cc1"
readout_kind = "growth"
recorded_value = 109


Prompt line: Fill in the recorded growth for this molecule, with TK-10 renal as test system: O=C(/C=C\c1ccc2ccccc2n1)c1cc(Cl)ccc1O
Response line: 95.1

Prompt line: Recorded growth for CN(C)CC(=O)Nc1ccc(Cn2nnc3c2C(=O)c2nnn(Cc4ccc(NC(=O)CN(C)C)cc4)c2C3=O)cc1 with TK-10 renal, please?
Response line: -14.2

Prompt line: Query for TK-10 renal: what growth does the record show for CC#Cc1nc2ccccc2c(=O)[nH]1 ?
Response line: 48

Prompt line: Missing value: growth, TK-10 renal, entry COc1ccc(C2Nc3ccccc3-n3cccc32)cc1 (stereo unspecified) . Fill in?
Response line: 100

Prompt line: growth of CCC(=O)OCc1cccc(OC)c1 on TK-10 renal?
Response line: 119

Prompt line: Hello, I am looking for reported growth with TK-10 renal for CN(C)CCOc1ccc(-c2nc3ccc(-c4nc5ccc(N6CCN(C)CC6)cc5[nH]4)cc3[nH]2)cc1 . Could you help?
Response line: 90.7

* * *

Tested on: MDA-MB-435 melanoma
method: NCI-60 one-dose screen, 48 h (100 = growth as untreated, 0 = no growth, -100 = all killed)
experimental setup: 10 µM unless noted
About 83,000 compounds went through this panel and 20% of them were active in at least one assay; those are over-represented in the sample as a whole.
Label MET when growth < 30%; otherwise NOT MET.

[[record]]
compound = "CCN(CC)CC(C)(C)C(=O)/C=C/c1ccccc1"
label_value = "NOT MET"

[[record]]
compound = "CN1CCCCC1CCN1c2ccccc2Sc2ccc(Cl)cc21 (stereo unspecified)"
label_value = "MET"

[[record]]
compound = "COc1cnc2c(c1)C(=O)c1c-2n(CCCBr)c(=O)c2cc([N+](=O)[O-])ccc12"
label_value = "MET"

[[record]]
compound = "O=C1c2cccnc2C(=O)c2c1c(C(=O)OCCN1CCOCC1)c1ccccn21"
label_value = "MET"

[[record]]
compound = "CCCCCCNC(=O)Oc1ccc(/C(=C(\\C)c2ccccc2)c2ccc(OCCN(CC)CC)cc2)cc1"
label_value = "NOT MET"

[[record]]
compound = "COc1ccc(-c2nc(Nc3cc(C)[nH]n3)c3ccccc3n2)cc1"
label_value = "MET"

[[record]]
compound = "Cc1cc(=O)oc2cc(Oc3nc(-c4cccs4)cn4c(-c5cccs5)cnc34)ccc12"
label_value = "NOT MET"

[[record]]
compound = "CCOC(=O)/C=C/c1ccc(C(=O)OCC)[nH]1"
label_value = "MET"

[[record]]
compound = "C(=N\\Nc1nnn(Cc2ccccc2)n1)/c1ccccc1"
label_value = "MET"

[[record]]
compound = "CCN(CC)CCCC(C)NCCCNc1cccc2cccnc12 (stereo unspecified)"
label_value = "NOT MET"


Prompt line: Consider the compound C=CC[N+]1(CCO)CCN=C1CCCCCCCCCCCCC (stereo unspecified) . Is its growth strictly less than 30%?
Response line: MET
